# pIC50 per entry
# system.name: full-length human PRMT8 isoform 1 (Homo sapiens)
# Sequence (Q9NR22 whole entry, canonical isoform): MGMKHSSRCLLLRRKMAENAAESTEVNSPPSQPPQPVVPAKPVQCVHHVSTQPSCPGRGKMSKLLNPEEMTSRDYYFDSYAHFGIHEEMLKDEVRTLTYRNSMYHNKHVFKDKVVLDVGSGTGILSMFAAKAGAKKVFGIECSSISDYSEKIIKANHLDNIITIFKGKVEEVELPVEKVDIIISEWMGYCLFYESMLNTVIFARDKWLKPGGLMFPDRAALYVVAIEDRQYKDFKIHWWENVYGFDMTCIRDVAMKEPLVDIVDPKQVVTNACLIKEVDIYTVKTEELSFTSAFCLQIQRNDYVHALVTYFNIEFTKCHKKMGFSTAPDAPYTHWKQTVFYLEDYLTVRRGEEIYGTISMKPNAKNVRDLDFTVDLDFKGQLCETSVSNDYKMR
# measurement.protocol: PRMT8 Biochemical Assay (3H-SAM Flashplate, peptide substrate)
# condition.summary: read-out: Biochemical IC50 PRMT8
pIC50: −log10 of the molar value.

Study these solved cases before continuing.
CNCCN(C)Cc1c[nH]nc1[C@H]1CC[C@]2(CCN(Cc3ccccc3)C2=O)CC1: > 7.00
CNCCN(C)Cc1c[nH]nc1[C@H]1CC[C@@H](N(CCCOC)C(=O)CC(C)C)CC1: > 7.00
CNCCN(C)Cc1c[nH]nc1[C@H]1CC[C@@H](N(CCCOC)C(=O)CCOc2ccccc2)CC1: > 7.00
CNCCN(C)Cc1c[nH]nc1C1CCC2(CC1)NC(=O)N(C)C2=O (stereo not shown): > 7.00
CNCCN(C)Cc1c[nH]nc1[C@H]1CC[C@H](OCCOc2ccc(OC)cc2)CC1: > 7.00

What value of pIC50 has been recorded for this entry: CNCCN(C)Cc1c[nH]nc1C1CCC2(CC1)CC(=O)N(CCC(C)C)C2 (stereo not shown)
> 7.00

What value of pIC50 has been recorded for this entry: CCOC[C@H]1CC(c2n[nH]cc2CN(C)CCNC)C[C@H](COCC)C1 (stereo partly shown)
5.52 to 6.00

What value of pIC50 has been recorded for this entry: `CNCCN(C)Cc1c[nH]nc1[C@@H]1CCC(C)(C)[C@@H](C(=O)NCCOC)C1`
6.00 to 7.00
